# Assayed target: kappa opioid receptor (KOR); human KOR (Homo sapiens, UniProt P41145)
# Method: [3H]diprenorphine competitive displacement, membranes
pKi: −log10 of the molar value.
Listing: pKi of selected compounds
Value kind: pKi

>>> readout_value("Cc1cc(O)cc(C)c1C[C@H](N)C(=O)N1CCc2ccc(Cc3ccccc3)cc2C1")
8.41
>>> readout_value("Cc1cc(O)cc(C)c1C[C@H](N)C(=O)N1CCc2cc(Cc3ccccc3)ccc2C1")
7.42
>>> readout_value("Cc1cc(O)cc(C)c1C[C@H](N)C(=O)N1CCc2cccc(Cc3ccccc3)c2C1")
7.59
>>> readout_value("Cc1cc(O)cc(C)c1C[C@H](N)C(=O)N1CCc2c(Cc3ccccc3)cccc2C1")
6.95
